assay: in vitro; conditions: human, hela cells, % viability
Record form. Attribute: viability at 28.5 h, 10 µM. Fill in for each entry.
A number alone suffices; assume %.

For this molecule ( COC(=O)CCC1(C)CN(C)CCC1=O (centres unmarked) [CBK028494] ), measured viability at 28.5 h, 10 µM is 85

For this molecule ( O=C(Nc1ccc2oc(-c3cccnc3)nc2c1)c1ccc(Br)o1 [CBK263436] ), measured viability at 28.5 h, 10 µM is 112

For this molecule ( CCOC(=O)C1CCN(Cn2nc(O)ccc2=O)CC1 [CBK263331] ), measured viability at 28.5 h, 10 µM is 90.7

For this molecule ( CCC(C)(C)c1ccc(S(=O)(=O)N2CCCN(Cc3ccnc4ccccc34)CC2)cc1 [CBK062865] ), measured viability at 28.5 h, 10 µM is 92.1

For this molecule ( Oc1c2c(nn1Cc1ccccc1)CCCC2 [CBK089898] ), measured viability at 28.5 h, 10 µM is 87.4
